# method.summary: chemical genetic growth profiling, strain panel (AID 1159580);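 note: tested at 20 µM; growth read once vehicle control cultures reached saturation at 30 °C; 1 = growth at the plate median or of vehicle wells; lower values mean less growth of the strain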
# condition.set: S. cerevisiae deletion strains, growth OD, locus YLR221C, strain rsa3
The whole screen tested about 5,500 compounds, of which about 2,000 (36%) were called active. About 18% were inconclusive and are not listed. Cut-off read from the data, not from the text of the source: active = normalized growth mostly below about 0.91 (no sharp cut-off); inconclusive = no clear call, values can overlap the other calls; inactive = mostly above about 0.92. Some of the results follow.
Outcome codes: T (active), F (inactive)

compound	label.class
CCCCCCCC/C=C/CCCCCCCCOP(=O)([O-])OCC[N+](C)(C)C	T
COc1cc(O)c2c(=O)cc(C)oc2c1CC=C(C)C	F
Cc1c(N(C)C)c(=O)n(-c2ccccc2)n1C	F
CC(C(=O)O)c1ccc2c(c1)[nH]c1ccc(Cl)cc12 (configuration not stated)	F
Cc1cc(OC(=O)N2CCCCC2)c(C(C)C)cc1[N+](C)(C)C	F
O=C(O)c1cc(=O)c2ccc(Cl)cc2[nH]1	F
CCCCCCCCCCCCCCCCOP(=O)([O-])OCC[N+](C)(C)C	T
COc1ccc2c(c1)[C@@]1(C)CCC(=O)C[C@H]1CC2	F
CC[C@H]1OC(=O)C[C@@H](O)[C@H](C)[C@@H](O[C@@H]2O[C@H](C)[C@@H](O[C@H]3C[C@@](C)(O)[C@@H](O)[C@H](C)O3)[C@H](N(C)C)[C@H]2O)[C@@H](CC=O)C[C@@H](C)C(=O)/C=C/C(C)=C/[C@@H]1CO[C@@H]1O[C@H](C)[C@@H](O)[C@@H](OC)[C@H]1OC	F
COc1ccc2c(c1)C1(C)CCC(=O)CC1CC2 (configuration not stated)	F
COc1cccc2c1CCC1CC(=O)CCC21C (configuration not stated)	F
Cc1cc(=O)c2c(O)c(C)c(O)cc2o1	F

* * *

# method.summary: chemical genetic growth profiling, strain panel (AID 1159580)
# condition.set: S. cerevisiae deletion strains, growth OD, locus YDL074C, strain BRE1
Among all 5,500 compounds or so, about 2,000 (36%) were called active. About 18% were inconclusive and are not listed. Cut-off read from the data, not from the text of the source: active = normalized growth mostly below about 0.91 (no sharp cut-off); inconclusive = no clear call, values can overlap the other calls; inactive = mostly above about 0.92. Some of the results follow.
Outcomes: label 1 = active, label 0 = inactive

compound	label.class
O=C1CC(c2ccccc2)Oc2ccccc21 (stereo unspecified)	label 0
OCC(O)Cc1ccc2c(c1)OCO2 (stereo unspecified)	label 0
COc1ccc(C2CC(=O)c3ccc(OC)cc3O2)cc1 (stereo unspecified)	label 1
C1CCc2nnnn2CC1	label 0
C=CCc1ccc2c(c1)OCO2	label 0
COc1ccc([C@@H]2CC(=O)c3c(O)cc(O)cc3O2)cc1O	label 0
O=C1C[C@@H](c2ccc(O)cc2)Oc2cc(O)cc(O)c21	label 0
O=C1C[C@@H](c2ccccc2)Oc2cc(O)cc(O)c21	label 0
C[C@@H]1O[C@@H](O[C@H]2[C@@H](Oc3cc(O)c4c(c3)O[C@H](c3ccc(O)cc3)CC4=O)O[C@H](CO)[C@@H](O)[C@@H]2O)[C@H](O)[C@H](O)[C@H]1O	label 0
COc1cc2c(cc1OC)C(=O)C(CC1CCN(Cc3ccccc3)CC1)C2 (stereo unspecified)	label 1
CC[C@@H](CO)NCCN[C@@H](CC)CO	label 0

* * *

# method.summary: chemical genetic growth profiling, strain panel (AID 1159580)
# condition.set: S. cerevisiae deletion strains, growth OD, locus YLR320W, strain mms22, active compounds read low
The whole screen tested about 5,500 compounds, of which about 2,000 (36%) were called active. Not shown: some 18% with an inconclusive outcome. Some of the results follow.
Below is a list of entries, each paired with its recorded normalized growth value.
assay.endpoint: normalized growth

compound	assay.endpoint	reported.result
CCc1nc(N)nc(N)c1-c1ccc(Cl)cc1	normalized growth	0.99
C[CH2][Hg][S]c1ccccc1C(=O)O	normalized growth	0.0814
CCN(CC)C(=S)SSC(=S)N(CC)CC	normalized growth	0.087
N#Cc1c(Cl)c(Cl)c(Cl)c(C#N)c1Cl	normalized growth	0.0991
CC(C)(N=NC(C)(C)C(=N)N)C(=N)N	normalized growth	1.07
CC1(C)S[C@@H]2[C@H](NC(=O)[C@H](NC(=O)N3CCNC3=O)c3ccccc3)C(=O)N2C1C(=O)O (stereo partly specified)	normalized growth	0.956

* * *

# method.summary: chemical genetic growth profiling, strain panel (AID 1159580);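 note: tested at 20 µM; growth read once vehicle control cultures reached saturation at 30 °C; 1 = growth at the plate median or of vehicle wells; lower values mean less growth of the strain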
# condition.set: S. cerevisiae deletion strains, growth OD, locus YDR137W, strain rgp1, active compounds read low
Out of some 5,500 compounds screened, about 2,000 (36%) were called active. About 18% were inconclusive and are not listed. The list shows a part of the results.
assay.endpoint: normalized growth

molecule	assay.endpoint	reported.result
CC(C)CC1C(=O)N2CCC[C@H]2C2(O)O[C@](NC(=O)C3C=C4c5cccc6[nH]c(Br)c(c56)C[C@H]4N(C)C3)(C(C)C)C(=O)N12 (stereo partly specified)	normalized growth	0.885
CC(C)(CO)C(O)C(=O)NCCCO (stereo unspecified)	normalized growth	1.03
CN1CCc2cc3c(cc2C1O)OCO3 (stereo unspecified)	normalized growth	0.981
CC(C)[C@H](N)C(=O)OCCOCn1cnc2c(=O)[nH]c(N)nc21	normalized growth	1.08
O=c1ccc2ccccc2o1	normalized growth	0.968
COc1ccc(-c2cc(=O)c3c(O)cc(OC)c(OC)c3o2)c(OC)c1	normalized growth	0.943
C[N+](C)(C)CCOP(=O)([O-])OP(=O)(O)OC[C@H]1OC(n2ccc(N)nc2=O)[C@H](O)[C@@H]1O (stereo partly specified)	normalized growth	0.991
C/C=C(/C(=C/C)c1ccc(O)cc1)c1ccc(O)cc1	normalized growth	0.757
CCCCCCCC/C=C/CCCCCCCCOP(=O)([O-])OCC[N+](C)(C)C	normalized growth	0.105
O=c1ccc2cc(O)c(O)cc2o1	normalized growth	0.913
NC(N)=NOCC[C@H](N)C(=O)O	normalized growth	1.01

* * *

# method.summary: chemical genetic growth profiling, strain panel (AID 1159580);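 note: tested at 20 µM; growth read once vehicle control cultures reached saturation at 30 °C; 1 = growth at the plate median or of vehicle wells; lower values mean less growth of the strain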
# condition.set: S. cerevisiae deletion strains, growth OD, locus YOR290C, strain snf2, active compounds read low
The whole screen tested about 5,500 compounds, of which about 2,000 (36%) were called active. Inconclusive results (about 18%) are left out. The list shows a part of the results.
assay.endpoint: normalized growth

molecule	reported.result
COC(=O)C1=COC(OC2OC(CO)C(O)C(O)C2O)C2C(C)CC(=O)C12O (configuration not stated)	0.927 (inactive)
C/C=C(/C(=C/C)c1ccc(O)cc1)c1ccc(O)cc1	0.971 (inactive)
COc1cc2c(cc1OC)C(=O)C(CC1CCN(Cc3ccccc3)CC1)C2 (configuration not stated)	1.04 (inactive)
OCC(O)Cc1ccc2c(c1)OCO2 (configuration not stated)	1.01 (inactive)
CC(C)(CO)C(O)C(=O)NCCCO (configuration not stated)	1.03 (inactive)
CC(C)CC1C(=O)N2CCC[C@H]2C2(O)O[C@](NC(=O)C3C=C4c5cccc6[nH]c(Br)c(c56)C[C@H]4N(C)C3)(C(C)C)C(=O)N12 (some centres not stated)	0.977 (inactive)
NCC1CCCCC1CC(=O)O (configuration not stated)	1 (inactive)
CC(=O)CC(=O)CCC(=O)O	1.01 (inactive)
O=c1ccc2ccccc2o1	1.01 (inactive)
O=[N+]([O-])O[C@H]1CO[C@H]2[C@@H]1OC[C@H]2O[N+](=O)[O-]	0.939 (inactive)
CNC1(C)C2CCC(C2)C1(C)C (configuration not stated)	0.958 (inactive)
Cc1ccc(O)cc1	1.02 (inactive)

* * *

# method.summary: chemical genetic growth profiling, strain panel (AID 1159580);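 note: tested at 20 µM; growth read once vehicle control cultures reached saturation at 30 °C; 1 = growth at the plate median or of vehicle wells; lower values mean less growth of the strain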
# condition.set: S. cerevisiae deletion strains, growth OD, locus YNL322C, strain KRE1
The campaign covered roughly 5,500 compounds. About 2,000 (36%) were called active. Roughly 18% stayed inconclusive and do not appear here. No stated cut-off is given here; in the data, active means normalized growth mostly below about 0.91 (no sharp cut-off); inconclusive means no clear call, values can overlap the other calls; inactive means mostly above about 0.92. This is one part of the list.
Outcome codes: true for active, false for inactive

molecule	label.class
CO[C@H]1C[C@H](O[C@H]2[C@H](C)[C@@H](OC3O[C@H](C)C[C@H](N(C)C)[C@H]3O)[C@@H](C)C[C@]3(CO3)C(=O)[C@H](C)[C@@H](O)[C@@H](C)[C@@H](C)OC(=O)[C@@H]2C)O[C@@H](C)[C@@H]1O (some centres not stated)	false
Cc1cc(=O)n2c(-c3ccc(Cl)cc3)csc2n1	false
COc1ccc(CC2c3cc(OC)c(OC)cc3CCN2C)cc1OC (configuration not stated)	false
C[N+]1(C)C2CCC1CC(OC(=O)c1c[nH]c3ccccc13)C2 (configuration not stated)	false
CCCCOc1ccc(C(=O)CCC(=O)O)cc1	false
OC(CCN1CCCCC1)(c1ccccc1)c1ccccc1	false
CC1(C)S[C@@H]2[C@H](NC(=O)[C@H](NC(=O)N3CCNC3=O)c3ccccc3)C(=O)N2C1C(=O)O (some centres not stated)	false
C[C@H]1OC[C@@H](C[N+](C)(C)C)O1	false
COc1c2c(c(CC=C(C)C)c3oc(=O)c(-c4ccc(O)cc4)c(O)c13)OC(C)(C)C=C2	true
CCC(C(=O)O)c1ccccc1 (configuration not stated)	false
N#Cc1cnn(-c2ccccc2)c1-n1cccc1	false
Cc1nn(-c2ccccc2)nc1C(=O)NC(=O)N1CCCC1	false
O=Nc1ccc2oc(=O)ccc2c1	false
Cc1cc(=O)c2c(O)c(C)c(O)cc2o1	false
FC(F)(F)Oc1ccc(-c2noc(CSc3ccc(Br)cc3)n2)cc1	false
Cc1ccc(C(=O)C(C)CN2CCCCC2)cc1 (configuration not stated)	false
C[N+](C)(C)CC(=O)[O-]	false
OCC(O)Cc1ccc2c(c1)OCO2 (configuration not stated)	false
c1ccc(CC2=NCCN2)cc1	false
Cc1c(N(C)C)c(=O)n(-c2ccccc2)n1C	false
Cc1cc(C)c2c(-n3cccc3)c(C(=O)c3ccc(Cl)cc3)sc2n1	false
CC(=O)O[C@H]1C(=O)[C@@]2(C)C([C@H](OC(=O)c3ccccc3)[C@]3(O)C[C@H](OC(=O)[C@H](O)[C@@H](NC(=O)c4ccccc4)c4ccccc4)C(C)=C1C3(C)C)[C@]1(OC(C)=O)CO[C@@H]1C[C@@H]2O (some centres not stated)	false
